# molecule, melting point
data = [
    ("C=C/C=C/CCOC(=O)c1cc(CBr)cc(CBr)c1", "50 to 52 °C"),
    ("CC(=O)c1nc(-c2ccncc2)[nH]c1C", "181 to 183 °C"),
    ("N#Cc1ccc(C2(COc3cccc4cc(NS(=O)(=O)C(F)(F)F)ccc34)N=CNO2)cc1 (stereo not given)", "184 to 185 °C"),
    ("Oc1ccc2c(CCCCN3CC=C(c4cccs4)CC3)c[nH]c2c1", "181 °C"),
    ("CC(C)(C)C(=O)Oc1ccc(-c2nnn(C(C(=O)NCC(=O)O)c3ccccc3)n2)cc1 (stereo not given)", "86 to 93 °C"),
    ("CON(C)Cc1nc2c(N)nc3ccccc3c2n1CC1CCOCC1", "223 to 226 °C"),
    ("CCOC(=O)c1cc(-c2cc(Br)cc(Br)c2)cnc1C", "100 to 102 °C"),
    ("COc1ccc(C2Sc3cc(Cc4ccc(C)s4)ccc3N(CCN(C)C)C(=O)C2OC(C)=O)cc1 (stereo not given)", "131 to 134 °C"),
    ("CC(=O)NC[C@H]1CN(c2ccc(-n3nccc3-c3ccccn3)c(F)c2)C(=O)O1", "79.9 to 82.1 °C"),
    ("CC(=O)Nc1ccc(N2CCNCC2)cc1", "191 to 193 °C"),
]

* * *

Reported melting point values for the following molecules.
outcome.measure: melting point

# molecule, outcome.measure, reported
records = [
    ("CNc1nc(Nc2ccc(Cl)c(Cl)c2)ncc1NS(C)(=O)=O", "melting point", "263 to 266 °C"),
    ("CC(=O)Nc1nc(-c2cccc3ccccc23)co1", "melting point", "188 to 190 °C"),
    ("Cc1ccc(S(N)(=O)=O)cc1C(O)CCl (stereo not given)", "melting point", "126 °C"),
    ("CCCN(CCC)c1ccc2c(c1)O/C(=C1/Oc3cc(N(CCC)CCC)ccc3C1=O)C2=O", "melting point", "283 °C"),
    ("O=C1c2ccccc2C(=O)c2oc(-c3ccccc3F)nc21", "melting point", "> 260 °C"),
    ("O=[N+]([O-])c1ccc(N(CCO)CCO)cc1F", "melting point", "99 to 101 °C"),
    ("CCC(O)c1cc(C(=O)c2ccccc2)no1 (stereo not given)", "melting point", "70 to 71 °C"),
    ("O=C(O)CCC(=O)OCc1ccc(-c2nn(Cc3ccccc3)c3cc(F)ccc23)o1", "melting point", "120 to 122 °C"),
    ("O=S1(=O)c2cccc3cccc(c23)N1CCCN1CCC(CC2C=Cc3ccccc32)CC1 (stereo not given)", "melting point", "140 °C"),
    ("COC(CC1OCC(Br)([N+](=O)[O-])CO1)OC (stereo not given)", "melting point", "95 to 97 °C"),
]

* * *

Reported melting point values for the following molecules.
outcome.measure: melting point

# molecule, reported
records = [
    ("COc1cc2c(cc1OC)C1NC(=O)CCC1=C2c1ccccc1 (stereo not given)", "259 to 260 °C"),
    ("O=C(NN=Cc1ccc(Cl)cc1)c1[nH]c2ccccc2c1Cc1ccccc1", "221 to 222 °C"),
    ("O=C(Nc1ccc(Oc2ccc(Cl)cc2)cc1)N1CC(c2ccccc2)=C(c2ccc(Cl)cc2)N1", "158 to 161 °C"),
    ("Cn1c([N+](=O)[O-])cnc1-c1nc(CCl)cs1", "160 to 162 °C"),
    ("Cc1[nH]cnc1/C=C/C(=O)c1c(C)oc2ccccc12", "166 to 168 °C"),
]

* * *

Reported melting point values for the following compounds.

# compound, melting point
records = [
    ("CC(C)Cn1cnc2c(N)nc3ccc(CCCN4CCCC4=O)cc3c21", "174 to 175 °C"),
    ("N#CCC(O)(c1ccccc1C(F)(F)F)c1ccccc1C(F)(F)F", "168 to 170 °C"),
    ("COCCNS(=O)(=O)c1ccc(C(CC2CCCC2)C(=O)Nc2nc3ccc(OC)nc3s2)cc1 (stereo not given)", "209 to 211 °C"),
    ("O=C(O)c1cccc(-c2cccc3oc(Cc4cccc(C(F)(F)F)c4)nc23)c1", "165 to 166 °C"),
    ("CC(C)(C)OC(=O)N1COC(=O)[C@@H]1Cc1ccccc1", "84 to 86 °C"),
    ("O=c1c(OC(F)F)cn(-c2ccccc2F)nc1-c1ccnn1-c1ccccc1", "109 to 114 °C"),
    ("N#Cc1cccc(C(CC(=O)O)N2C(=O)c3ccccc3C2=O)c1 (stereo not given)", "217 to 220 °C"),
    ("Nc1c([N+](=O)[O-])nc(Cl)c2nncn12", "220 °C"),
    ("CCOC(=O)c1cc2c(=O)n(CC)c3ccccc3n2c1", "184 to 186 °C"),
    ("N#Cc1cnc2sc(S(=O)(=O)Cc3ccccc3)nn2c1=O", "219 to 221 °C"),
]

* * *

Reported melting point values for the following compounds.
outcome.measure: melting point (°C)

# compound, reported
records = [
    ("COC1=CC2=CCC3C(C(F)CC4(C)C(=O)CCC34)C2CC1 (stereo not given)", 173),
    ("CC(=O)SCC(=Cc1ccc2c(c1)OCO2)C(=O)NCCC(=O)OCc1ccccc1", 76),
]

* * *

outcome.measure: melting point

# molecule, reported
data = [
    ("CCCCCNc1cccc2c1CN(C1CCC(=O)NC1=O)C2=O (stereo not given)", "244 to 246 °C"),
    ("COC(=O)c1ccc(NC(C)=O)c(NC(=O)COC(C)=O)c1", "182 to 186 °C"),
    ("O=C(O)[C@@H](CCN1C(=O)c2ccccc2C1=O)Oc1c(Br)cc(-c2c(Br)ccc3sc4ccccc4c23)cc1Br", "130 to 132 °C"),
    ("Cc1cc(-c2ccc(C(F)(F)F)cc2)cn2c(C(=O)O)cnc12", "211 °C"),
    ("CCOC(=O)c1sc(C)nc1S", "62 to 66 °C"),
]

* * *

# smiles.string, melting point
records = [
    ("NC(=O)N1CCC(Oc2ccc([N+](=O)[O-])cc2)(c2ccccc2)CC1", "203 to 206 °C"),
    ("CCOC(=O)c1oc(SC)c2c1CCCC2=O", "123 to 124 °C"),
    ("c1ccc(-c2cc(N3CCNCC3)nc3ccccc23)cc1", "133 to 134 °C"),
    ("CNC(=NC#N)NCc1ncc(-c2csc(N=C(N)N)n2)s1", "258 to 259 °C"),
    ("CCN1c2cscc2C(=O)N(CCN(C)C)c2ccccc21", "75 to 77 °C"),
    ("Cc1nn(-c2ccc(C(F)(F)F)cn2)cc1COc1ccc(OCC(=O)O)cc1", "138 to 139 °C"),
]

* * *

Residues, ends and D or L forms follow the SMILES beside them. *: point of attachment. Boc = CC(C)(C)OC(=O)*; OBn = c1ccc(CO*)cc1; Bn = c1ccc(C*)cc1
Reported melting point values for the following compounds.
outcome.measure: melting point

# compound, outcome.measure, reported
data = [
    ("CN(Cc1ccccc1)C(=O)c1cnc2c([N+](=O)[O-])cccc2c1Cl", "melting point", "120 to 121 °C"),
    ("CC(C)CC(NC(=O)C(Cc1ccc(OCc2ccccc2)cc1)NC(=O)OC(C)(C)C)C(=O)NCC(=O)OCc1ccccc1 (stereo not drawn) (Boc-Tyr(Bn)-Leu-Gly-OBn; configuration not given here)", "melting point", "114 to 116 °C"),
    ("COc1cc(Nc2nccc(-c3ccc(NCCN(C)C)nc3)n2)cc(OC)c1OC", "melting point", "110 to 111 °C"),
    ("COc1cccc2nc(-c3ccc(OCCO)c(-c4ccc(S(C)(=O)=O)cc4)n3)[nH]c(=O)c12", "melting point", "> 300 °C"),
    ("O=C1Cc2cc(Oc3ccccc3Cl)ccc2N1", "melting point", "139 to 140 °C"),
    ("CCC[C@@H](C)C(C(=O)O)C(=O)O", "melting point", "95 °C"),
    ("CNc1ncn(-c2c(Cl)cccc2Cl)c(=O)n1", "melting point", "270 °C"),
    ("CC1(C)CC(CN2CCNC2=N[N+](=O)[O-])CO1 (stereo not given)", "melting point", "119 to 120 °C"),
    ("COC(=O)c1cc(N)n[nH]1", "melting point", "134 °C"),
    ("CCOC(=O)c1c(C)nc(NCCCN(C)C)c2nccnc12", "melting point", "55 to 57 °C"),
    ("Cc1cn2c(n1)CN=C(c1ccccc1Cl)c1cc(Cl)ccc1-2", "melting point", "170 °C"),
    ("COc1cccc(CCNCCc2c[nH]cn2)c1", "melting point", "98 to 100 °C"),
    ("CN(C)CCCOc1ccc2c(c1)C(c1ccccc1)CC(=O)N2 (stereo not given)", "melting point", "134 to 136 °C"),
    ("CC1(CNC(=O)C(F)(F)F)CN(c2c(F)cc3c(=O)c(C(=O)O)cn(C4CC4)c3c2F)C1", "melting point", "232 to 237 °C"),
    ("CCOC(=O)C1=C(N(C)C)N=C(C)C(C(=O)OCC)C1c1ccccc1C (stereo not given)", "melting point", "88 °C"),
    ("C#Cc1cccc(NC(=O)CCCC(=O)O)c1", "melting point", "150 to 154 °C"),
    ("CCOC(=O)C1=C(COCCNC2=NC(=O)CS2)NC(C)=C(C(=O)OC)C1c1cccc(Cl)c1Cl (stereo not given)", "melting point", "204 to 205 °C"),
    ("O=C(c1ccccc1)C(O)n1cncc1Cl (stereo not given)", "melting point", "201 to 203 °C"),
    ("O=C1c2ccccc2C(=O)N1CC(=O)N(Cc1ccccc1)c1ccccc1", "melting point", "150 °C"),
    ("CCOC(=O)C1=C(C)NC(N=CN(C)C)=C(C(=O)OCC)C1c1ccccc1Cl (stereo not given)", "melting point", "140 °C"),
]
